- system-tested: UniProt P00742
- Sequence (P00742 235-488 limits assumed): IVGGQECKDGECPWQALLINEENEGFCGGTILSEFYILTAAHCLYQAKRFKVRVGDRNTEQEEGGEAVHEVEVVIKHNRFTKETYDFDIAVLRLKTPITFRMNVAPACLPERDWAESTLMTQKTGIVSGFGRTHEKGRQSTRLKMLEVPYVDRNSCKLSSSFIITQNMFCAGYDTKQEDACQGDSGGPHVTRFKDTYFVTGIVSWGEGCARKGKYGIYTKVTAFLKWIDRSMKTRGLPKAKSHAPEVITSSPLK
- Sequence (P00742 41-179 partner limits assumed): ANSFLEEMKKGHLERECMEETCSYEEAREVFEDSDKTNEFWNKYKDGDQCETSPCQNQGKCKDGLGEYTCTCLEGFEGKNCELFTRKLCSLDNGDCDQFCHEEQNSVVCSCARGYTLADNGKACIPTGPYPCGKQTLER
- experimental-protocol: In vitro Factor Xa inhibition, chromogenic assay
- Assay type: biochemical
- assay-setup: 0.1 μM compound, read-out: % Factor Xa inhibition at 0.1 μM using chromogenic assay
Please provide measured inhibition at 0.1 µM for the entries that follow.
Provide the reading as a plain figure in %.

The reported inhibition at 0.1 µM value, UniProt P00742, for CS(=O)(=O)N=S(C)(=O)c1ccccc1-c1ccc(C(=O)Nc2ccc(Cl)cc2C(=O)Nc2ccc(Cl)cn2)cc1 (stereo not shown) reads 84

The reported inhibition at 0.1 µM value, UniProt P00742, for CS(=O)(=NC(=O)CN1CCCCC1)c1ccc(C(=O)Nc2ccc(Cl)cc2C(=O)Nc2ccc(Cl)cn2)cc1 (stereo not shown) reads 60

The reported inhibition at 0.1 µM value, UniProt P00742, for COc1cc(Cl)cc(C(=O)Nc2ccc(Cl)cn2)c1NC(=O)c1ccc(-c2ccccc2S(C)(=N)=O)cc1 (stereo not shown) reads 95

The reported inhibition at 0.1 µM value, UniProt P00742, for CS(=O)(=NCCN1CCCC1)c1ccc(C(=O)Nc2ccc(Cl)cc2C(=O)Nc2ccc(Cl)cn2)cc1 (stereo not shown) reads 74
